Property: log10 of TGI; scope: individual molecules
Test system: DMS 273 small cell lung
Assay: NCI tumour cell line growth inhibition, 48 h
result type: log10 of TGI (log10 of the value in µM)

>>> data_value("COCCOCOC(C)(C)[C@H](CCOC(C)=O)O[Si](c1ccccc1)(c1ccccc1)C(C)(C)C")
1.42
>>> data_value("O=NN(CCCl)C(=O)NC1CCC(=O)NC1=O (configuration not stated)")
2.80
>>> data_value("COc1cccc2c1[C@H]1CO[C@H]3C4C[C@H](C(=O)O)C([C@@H](C2)N13)N4C (some centres not stated)")
0.12
>>> data_value("COC1=CC(=O)c2c(O)c3c(c(O)c2C1=O)C[C@](C)(O)C[C@@H]3O")
0.92
>>> data_value("CCN(CC)CCCC(C)Nc1c(Sc2cnc3cc(Cl)ccc3c2NC(C)CCCN(CC)CC)cnc2cc(Cl)ccc12 (configuration not stated)")
0.50
>>> data_value("Nc1ccc(C(=O)NN2C(=O)C(Cl)C2c2cccc(O)c2)cc1 (configuration not stated)")
1.37

* * *

System: SK-MEL-5 melanoma
Experiment: NCI tumour cell line growth inhibition, 48 h; in the data active = GI50 below about 0.43 µM; inactive = the rest
Labels: Yes (active), No (inactive)

>>> class_assignment("COc1ccc2c(c1)C(=O)c1c-2c(N2CCNCC2)nc2ccccc12")
"No"
>>> class_assignment("Nc1ncccc1-c1nc2ccc(-c3ccccc3)nc2n1-c1ccc(C2(N)CCC2)cc1")
"No"
>>> class_assignment("O=C(Nc1ccccc1Cl)c1cccc(NC2=C(Cl)C(=O)N(Cc3ccccc3)C2=O)c1")
"No"
>>> class_assignment("N/C(=N\\c1nc2ccccc2s1)NC(=NC1CCCCC1)NC1CCCCC1")
"No"
>>> class_assignment("COc1cccc(C2C(C#N)=C(N)Oc3c2ccc2ccccc32)c1 (stereo unspecified)")
"Yes"
>>> class_assignment("Cc1cc(NC(=O)c2cnc(N3CCN(CCOCCOCCOCCOCCC(=O)N[C@H](C(=O)N4C[C@H](O)C[C@H]4C(=O)N[C@@H](C)c4ccc(-c5scnc5C)cc4)C(C)(C)C)CC3)cn2)c2ncccc2c1")
"No"
>>> class_assignment("CCN1C(=O)N(CC)C2C1NN=c1s/c(=C\\c3ccc[nH]3)c(=O)n12 (stereo unspecified)")
"Yes"
>>> class_assignment("CN(c1ccc(C#N)c(Cl)c1)C1CCC(NC(=O)c2ccc(N3CCN(C4CN(c5ccc6c(c5)C(=O)N(C5CCC(=O)NC5=O)C6=O)C4)CC3)cc2)CC1 (stereo unspecified)")
"No"
>>> class_assignment("CCN(CC)CCCC(C)Nc1c(-c2ccccc2)cnc2cc(Cl)ccc12 (stereo unspecified)")
"No"
>>> class_assignment("COc1ccc2c(c1)/C(=C\\c1c[nH]c3ccc(OC)cc13)C(=O)N2")
"No"
>>> class_assignment("Cc1oc2c(c1C(=O)N1CC[C@@H](N)C1)C(=O)c1c(c(O)c3ccccc3c1O)C2=O")
"No"
>>> class_assignment("Oc1c(Cl)cc(Cl)c2cccnc12")
"No"
>>> class_assignment("O=C1CSC(c2ccccc2O)N1c1nnc(Cn2ccnc2)o1 (stereo unspecified)")
"No"
>>> class_assignment("C=C1C(=O)O[C@H]2[C@H]1CC/C(CNC(=O)/C=C/c1ccccc1)=C\\CC[C@@]1(C)O[C@@H]21")
"No"
>>> class_assignment("Brc1cccc(-c2cc(-c3ccc4nccnc4c3)[nH]n2)c1")
"No"
>>> class_assignment("O=C1/C(=C/c2cccc(Br)c2)COc2ccc(O)c(O)c21")
"No"
